Target or system NfGlck (Naegleria fowleri glucokinase) (Naegleria fowleri, UniProt A0A384E136); recorded quantity IC50.

Solved cases below.
O=C(NS(=O)(=O)c1ccc(-c2ccc3c(c2)OCCO3)cc1)c1ccc2c(ccn2Cc2ccc(C(F)(F)F)cc2C(F)(F)F)c1 [SZ33TA30]; > 10 µM
O=C(NS(=O)(=O)c1ccc(-c2ccc(Oc3ccccc3)cc2)cc1)c1ccc2oc(-c3ccccc3)cc2c1 [SZ35TA41]; > 10 µM
COc1cc(OC)cc(C(=O)NS(=O)(=O)c2ccc(CN3CCN(c4ccccc4)CC3)cc2)c1 [SZ1TA5]; > 10 µM
O=C(NS(=O)(=O)CCN(CSCc1ccccc1)Cc1ccc2c(c1)OCO2)c1ccc2oc(-c3ccccc3)cc2c1 [SZ28TA41]; > 10 µM
Cn1cc(C(=O)c2cccs2)c2cc(C(=O)NS(=O)(=O)c3ccc(-c4ccc5c(c4)OCCO5)cc3)ccc21 [SZ33TA45]; 10.9 µM

Input CCOc1ccc(-c2ccc3c(c2)c(C(=O)NS(=O)(=O)c2ccc(-c4ccc(Oc5ccccc5)cc4)cc2)cn3C)cc1F [SZ35TA23] , output reported IC50.
> 10 µM

Give a short answer stating reported IC50 for Cn1cc(C(=O)c2cccs2)c2cc(C(=O)NS(=O)(=O)c3ccc(-c4ccc(Oc5ccccc5)cc4)cc3)ccc21 [SZ35TA45] .
> 10 µM

Give the value of IC50 reported for the following: O=C(NS(=O)(=O)CCN(CSCc1ccccc1)Cc1ccc2c(c1)OCO2)c1ccc2c(ccn2Cc2ccc(C(F)(F)F)cc2C(F)(F)F)c1 [SZ28TA30]
> 10 µM

Give reported IC50 value for Cn1cc(C(=O)NS(=O)(=O)CCN(CSCc2ccccc2)Cc2ccc3c(c2)OCO3)c2cc(-c3ccc(S(C)(=O)=O)cc3)ccc21 [SZ28TA26]
> 10 µM

Give the reported value of IC50 for this record: O=C(NS(=O)(=O)c1ccc(-c2ccc(Oc3ccccc3)cc2)cc1)c1ccc2c(ccn2Cc2ccc(C(F)(F)F)cc2C(F)(F)F)c1 [SZ35TA30]
1.9 µM

Complete the entry with IC50 for COc1ccccc1-c1ccc(C(=O)NS(=O)(=O)c2ccc(-c3cc4ccccc4s3)cc2)cc1 [SZ37TA21]
> 10 µM

Identify the reported IC50 for the following entry. O=C(NS(=O)(=O)c1ccc(-c2ccc(C(F)(F)F)cc2)cc1)c1ccc2oc(-c3ccccc3)cc2c1 [SZ16TA41]
> 10 µM

---

# system-under-test: BmGlck (Balamuthia mandrillaris glucokinase) (Balamuthia mandrillaris, UniProt Z9NIO0WF95)
quantity-measured: IC50 (µM)

See these solved cases before continuing.
O=C(NS(=O)(=O)c1ccc(-c2ccc(C(F)(F)F)cc2)cc1)c1ccc2oc(-c3ccccc3)cc2c1; 3
O=C(NS(=O)(=O)c1ccc(-c2ccc3c(c2)OCCO3)cc1)c1ccc2c(ccn2Cc2ccc(C(F)(F)F)cc2C(F)(F)F)c1; 1.48
O=C(NS(=O)(=O)CCN(CSCc1ccccc1)Cc1ccc2c(c1)OCO2)c1ccc2c(ccn2Cc2ccc(C(F)(F)F)cc2C(F)(F)F)c1; 1.68
Cn1cc(C(=O)NS(=O)(=O)CCN(CSCc2ccccc2)Cc2ccc3c(c2)OCO3)c2cc(-c3ccc(S(C)(=O)=O)cc3)ccc21; 4.77

(a) O=C(NS(=O)(=O)c1ccc(-c2ccc(Oc3ccccc3)cc2)cc1)c1ccc2oc(-c3ccccc3)cc2c1
(b) COc1ccccc1-c1ccc(C(=O)NS(=O)(=O)c2ccc(-c3cc4ccccc4s3)cc2)cc1
(c) O=C(NS(=O)(=O)CCN(CSCc1ccccc1)Cc1ccc2c(c1)OCO2)c1ccc2oc(-c3ccccc3)cc2c1
(d) O=C(NS(=O)(=O)c1ccc(-c2ccc(Oc3ccccc3)cc2)cc1)c1ccc2c(ccn2Cc2ccc(C(F)(F)F)cc2C(F)(F)F)c1
(e) Cn1cc(C(=O)c2cccs2)c2cc(C(=O)NS(=O)(=O)c3ccc(-c4ccc(Oc5ccccc5)cc4)cc3)ccc21
Parameters: sort_field (IC50), sort_dir (desc). Quick reminder: the answer is the labels in the order asked.
c, b, e, a, d

---

The following compounds each carry a recorded pIC50 for AcGlck (Acanthamoeba castellanii glucokinase) (Acanthamoeba castellanii, UniProt L8GT25).
pIC50: −log10 of the molar value.
quantity-measured: pIC50

O=C(NS(=O)(=O)c1ccc(-c2ccc3c(c2)OCCO3)cc1)c1ccc2c(ccn2Cc2ccc(C(F)(F)F)cc2C(F)(F)F)c1 [SZ33TA30]; 5.36

(P) Cn1cc(C(=O)c2cccs2)c2cc(C(=O)NS(=O)(=O)c3ccc(-c4ccc(Oc5ccccc5)cc4)cc3)ccc21 [SZ35TA45]
(Q) COc1cc(OC)cc(C(=O)NS(=O)(=O)c2ccc(CN3CCN(c4ccccc4)CC3)cc2)c1 [SZ1TA5]
Which is greater in pIC50, the first item P or the second item Q ? // respond with label for picked entry
P
(P: 5.48, Q: 4.94)

---

# system-under-test: BmGlck (Balamuthia mandrillaris glucokinase) (Balamuthia mandrillaris)
quantity-measured: IC50

COc1cc(OC)cc(C(=O)NS(=O)(=O)c2ccc(CN3CCN(c4ccccc4)CC3)cc2)c1; > 10 µM

Determine reported IC50 for "CCOc1ccc(-c2ccc3c(c2)c(C(=O)NS(=O)(=O)c2ccc(-c4ccc(Oc5ccccc5)cc4)cc2)cn3C)cc1F" ; test system: BmGlck (Balamuthia mandrillaris glucokinase) (Balamuthia mandrillaris).
> 10 µM

Report the value of IC50 obtained on BmGlck (Balamuthia mandrillaris glucokinase) (Balamuthia mandrillaris) for "Cn1cc(C(=O)c2cccs2)c2cc(C(=O)NS(=O)(=O)c3ccc(-c4ccc5c(c4)OCCO5)cc3)ccc21" .
> 10 µM
